Listed below: pIC50 values for each entry.
- Species on record: Rattus norvegicus
- run_description: In vitro inhibitory concentration that relaxed KCL induced contraction in rat detrusor strip by 50%
- Type: functional
Remember, pIC50 is on a log scale: it is -log10 of the molar concentration.

Below, 3 compounds whose answers are already recorded.
[
  {
    "compound": "CCC(C)(C)/N=c1\\c(O)c(O)\\c1=N/Cc1ccc(C)cc1C",
    "pIC50": 6.28
  },
  {
    "compound": "CC(C)(C)/N=c1\\c(O)c(O)\\c1=N/Cc1ccc(Cl)cc1Cl",
    "pIC50": 5.89
  },
  {
    "compound": "CCC(C)(C)/N=c1\\c(O)c(O)\\c1=N/Cc1ccc(Cl)cc1Cl",
    "pIC50": 6.68
  }
]

Request: Could you tell me which pIC50 is on file for CC(C)(C)/N=c1\c(O)c(O)\c1=N/Cc1cc(F)ccc1F ?
Result: 5.41

====

Below: a set of entries, each annotated with reported IC50.
- Species on record: Rattus norvegicus
- run_description: In vitro inhibitory concentration that relaxed KCL induced contraction in rat detrusor strip by 50%
- Format: functional

[
  {
    "compound": "CC(/N=c1\\c(O)c(O)\\c1=N/CCc1ccc(C#N)cc1)C(C)(C)C (stereo not drawn)",
    "result": "> 30 µM"
  },
  {
    "compound": "CCC(C)(C)/N=c1\\c(O)c(O)\\c1=N/Cc1ccc(C)c(C)c1",
    "result": "> 30 µM"
  }
]

Read the next record carefully.
Request: Entry CN(C)c1c(NCc2ccc(C#N)cc2)c(=O)c1=O : reported IC50 = ?
Result: > 30 µM

====

- Organism: Rattus norvegicus
- run_description: In vitro inhibitory concentration that relaxed KCL induced contraction in rat detrusor strip by 50%
- Format: functional
So basically, if IC50 comes in under 0.6 µM it's Yes, and if it's 0.6 µM or more it's No.

[
  {
    "molecule": "CC(C)(C)/N=c1\\c(O)c(O)\\c1=N/CCc1ccc(C#N)cc1",
    "class_name": "No"
  },
  {
    "molecule": "N#Cc1ccc(CNc2c(NCc3ccc(C#N)cc3)c(=O)c2=O)cc1",
    "class_name": "No"
  },
  {
    "molecule": "CCc1cc(C/N=c2\\c(O)c(O)\\c2=N/C(C)(C)C)ccc1C#N",
    "class_name": "No"
  },
  {
    "molecule": "CCc1cc(C#N)ccc1C/N=c1\\c(O)c(O)\\c1=N/C(C)(C)CC",
    "class_name": "Yes"
  },
  {
    "molecule": "CC(/N=c1\\c(O)c(O)\\c1=N/Cc1ccc(C#N)cc1Cl)C(C)(C)C (centres undefined)",
    "class_name": "Yes"
  },
  {
    "molecule": "CCC(C)(C)/N=c1\\c(O)c(O)\\c1=N/Cc1ccc(C#N)c(Cl)c1",
    "class_name": "Yes"
  }
]

Request: Please indicate whether the reported IC50 of Cc1ccc(C/N=c2\c(O)c(O)\c2=N/C(C)(C)C)c(C)c1 is strictly below 0.6 µM.
Result: No

Request: Determine whether this molecule shows IC50 lower than 0.6 µM (ties excluded): CCc1cc(C#N)ccc1C/N=c1\c(O)c(O)\c1=N/[C@H](C)C(C)(C)C
Result: No

====

- Organism: Rattus norvegicus
- run_description: In vitro inhibitory concentration that relaxed KCL induced contraction in rat detrusor strip by 50%
- Type: functional
Mark each entry y if its IC50 sits below 1000 nM, and n for all others.

[
  {
    "compound": "CCC(C)(C)/N=c1\\c(O)c(O)\\c1=N/Cc1ccc(F)cc1",
    "class_name": "y"
  },
  {
    "compound": "CCC(C)(C)/N=c1\\c(O)c(O)\\c1=N/Cc1c(C)cc(C)cc1Cl",
    "class_name": "y"
  },
  {
    "compound": "CCC(C)(C)/N=c1\\c(O)c(O)\\c1=N/Cc1ccc(F)c(F)c1",
    "class_name": "n"
  },
  {
    "compound": "CCC(CC)/N=c1\\c(O)c(O)\\c1=N/Cc1ccc(C#N)cc1",
    "class_name": "n"
  },
  {
    "compound": "CCCC(=O)N(Cc1ccc(C#N)cc1)c1c(NC(C)C(C)(C)C)c(=O)c1=O (stereo unspecified)",
    "class_name": "n"
  },
  {
    "compound": "CC(/N=c1\\c(O)c(O)\\c1=N/[C@H](C)C(C)(C)C)c1ccc(C#N)cc1 (stereo partly specified)",
    "class_name": "n"
  },
  {
    "compound": "CC(C)(C)/N=c1\\c(O)c(O)\\c1=N/Cc1ccc(C#N)cc1",
    "class_name": "y"
  },
  {
    "compound": "CC(C)(C)/N=c1\\c(O)c(O)\\c1=N/Cc1ccncc1",
    "class_name": "n"
  },
  {
    "compound": "CC(C)(C)/N=c1\\c(O)c(O)\\c1=N/Cc1c(F)cccc1F",
    "class_name": "n"
  },
  {
    "compound": "CC(C)(C)/N=c1\\c(O)c(O)\\c1=N/Cc1ccc(C#N)c(Cl)c1",
    "class_name": "n"
  }
]

Request: Consider CC(C)(C)/N=c1\c(O)c(O)\c1=N/Cc1ccccn1 . Does its IC50 lie strictly below 1000 nM?
Result: n

Request: Criterion: IC50 strictly below 1000 nM. Is it met by CCC(C)(C)/N=c1\c(O)c(O)\c1=N/Cc1ccc(SC)cc1 ?
Result: n

Request: Check if IC50 falls below 1000 nM for CCCC/N=c1\c(O)c(O)\c1=N/Cc1ccc(C#N)cc1 .
Result: n

Request: Answer whether the compound CCC(C)(C)/N=c1\c(O)c(O)\c1=N/Cc1c(C)cc(Br)cc1C has IC50 strictly less than 1000 nM
Result: n

Request: Consider the compound C[C@@H](/N=c1\c(O)c(O)\c1=N/Cc1ccc(C#N)cc1)C(C)(C)C . Is its IC50 strictly less than 1000 nM?
Result: y

Request: Is the reported IC50 for N#Cc1ccc(CNc2c(N)c(=O)c2=O)cc1 strictly below 1000 nM?
Result: n
